Target: T1, hROR2ECD-his (human, UniProt Q01974 34-403)
T1 construct: extracellular domain; bought, Acrobiosystems R02-H52E5; also called huROR2-his
T1 sequence (Q01974 34-403): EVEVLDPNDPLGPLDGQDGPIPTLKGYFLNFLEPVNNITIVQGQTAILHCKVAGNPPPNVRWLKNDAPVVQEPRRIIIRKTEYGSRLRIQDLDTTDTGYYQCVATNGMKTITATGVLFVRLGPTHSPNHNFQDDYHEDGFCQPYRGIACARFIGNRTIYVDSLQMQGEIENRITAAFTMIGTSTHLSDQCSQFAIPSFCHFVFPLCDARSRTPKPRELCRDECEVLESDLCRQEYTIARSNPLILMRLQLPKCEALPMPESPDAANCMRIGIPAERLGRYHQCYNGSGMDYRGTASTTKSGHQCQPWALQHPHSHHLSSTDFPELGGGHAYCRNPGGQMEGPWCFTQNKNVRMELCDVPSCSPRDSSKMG
Assay: ELISA, plate coated with hROR2 ECD-his
The following binders are listed with their measured ELISA signal (called MFI) values.
API doc: respond with a numeric literal and nothing else, no unit.

Consider the reported ELISA signal (called MFI) for these binders:
PR001359 (antibody, human IgG1, kappa, V domains shown, fully human IgG1, kappa) VH: QVQLVESGGGVVQPGRSLRLSCAASGFTFSTYGMHWVRQAPGKGLEWVAVTWYDGSDKDYADSVKGRFTISRDTSKNTLYLQMNSLRAEDTAVYYCAREQARSFDLWGRGTLVTVSS VL: DIVMTQSPSTLSASVGDRVTITCRASQSVNNWLAWYQQKPGKAPKLLIYKASSLESGVPSRFSGSGSGTEFTLTISSLQPDDFATYYCQQYKSYSPMYTFGQGTKVEIKR : 0.038
PR001363 (antibody, human IgG1, kappa, V domains shown, fully human IgG1, kappa) VH: QVQLVESGGGVVQPGRSLRLSCAASGFSFSSYAMHWVRQAPGRGLEWVAVIWYDGGDEDSIDSVKGRFTISRDDSKNTLYLQMNSLRAEDTAVYYCAREQARSFDLWGRGTLVTVSS VL: DVVMTQSPSTLSASVGDRVTITCRASQTINNWLAWYQQKPGKAPKLLIYKASSLESGVPSRFSGSGSGTEFTLTISSLQPDDFATYYCQQYNSYSPMYTFGQGTKVEIKR : 0.0305
PR001367 (antibody, human IgG1, kappa, V domains shown, fully human IgG1, kappa) VH: QVQLVESGGGVVQPGRSLRLSCAASGFSFSSYAMHWVRQAPGRGLEWVAVIWYDGGDEDYIDSVKGRFTISRDDSKNTLYLQMNSLRAEDTAVYYCAREQARSFDLWGRGTLVTVSS VL: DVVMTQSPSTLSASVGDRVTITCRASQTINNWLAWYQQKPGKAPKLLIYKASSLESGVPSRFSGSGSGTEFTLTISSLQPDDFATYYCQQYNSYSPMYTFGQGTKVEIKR : 0.0235
PR001354 (antibody, human IgG1, kappa, V domains shown, fully human IgG1, kappa; also called anti-ROR1 1015M2-C9 hIgG1; PR001354(WT)) VH: QVQLVQSGGGVVQPGRSLRLSCAASGFTFSSYGMHWVRQAPGKGLEWVAIMWYDGSDKDYADSVKGRFTISRDTSKNTLYLQMNSLRAEDTAVYYCAREQARSFDLWGRGTLVTVSS VL: DIVMTQSPSSLSASVGDRVTITCRASQTINNWLAWYQQKPGKAPKLLIYKASSLESGVPSRFSGSGSGTEFTLTISSLQPDDFATYYCQQYNSYSPMYTFGQGTKVEIKR : 0.027

Inquiry: What ELISA signal (called MFI) value was documented for this binder, PR001371 (antibody, human IgG1, kappa, V domains shown, fully human IgG1, kappa) VH: QVQLVESGGGVVQPGRSLRLSCAASGFTFSSYGMLWVRQAPGKGLEWVAVAWYDGVSEDYADSVKGRFTISRDNSMNTLSLQMNSLRAEDTAVYYCAREQARSFDLWGRGTLVTVSS VL: DIQLTQSPSSLSASVGDRVTITCRASQTINNWLAWYQQKPGKAPKLLIYKASSLESGVPSRFSGSGSGTEFTLTISSLQPDDFATYYCQQYNSYSPMYTFGQGTKVEIKR ?
Reply text: 0.0235

Every entry's value here was drawn from patent US20240010721A1.
